test: optical density change of DRC41 E. coli – strain DRC41, OD650, 24 h, E. coli filamentation project, primary screen (AID 1093);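 note: MC1000 strain lacking acrAB efflux and sulA so SOS filamentation is blocked; test concentration not given here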; settings: E. coli DRC41 growth, higher = more signal, called active from +8 up or from −8 down
Hi, to clarify the labels: condition met covers z-score from -0.1 upward, condition not met covers anything below -0.1.

1) CC(C)C(CO)N1C(=O)[C@@H]2C3C(=O)OCCC/C=C\[C@H]3OC23C=CCN(Cc2ccccc2)C(=O)[C@@H]13 (some centres not stated) | condition met
2) C[C@@H]1ON(c2ccccc2)[C@H](c2ccccc2)[C@H]1C(=O)O | condition not met
3) CCCCCCc1nc(-c2ccc(-c3ccc(Cl)c(Cl)c3)o2)cc2c1[Si](C(C)C)(C(C)C)OC2 | condition met
4) N#Cc1ccc(C(O)C2C=CC3C(=O)NC(=O)C3N2Nc2ccc(Cl)cc2Cl)cc1 (configuration not stated) | condition not met
5) O=C1O[C@@H](c2ccccc2)[C@@H](c2ccccc2)N2[C@@H](c3ccc(OCCO)cc3)[C@]3(C(=O)Nc4ccc(C#CCCO)cc43)[C@@H](C(=O)O)[C@H]12 | condition met
6) CC[C@@H]1C=C(C(=O)O)[C@H](c2ccc(OC)cc2)N1S(=O)(=O)c1ccc(C)cc1 | condition not met
7) COc1ccc([Si](C)(C)[C@@H]2[C@@H](CC(=O)N3Cc4ccccc4C[C@H]3CO)O[C@]3(C(=O)N(Cc4cccc(N5CCOC5=O)c4)c4ccccc43)[C@H]2C)cc1 | condition met
